Values compiled from paper PMC6754133.

- Test system: Hh/SMO pathway
- test: Gli-Luciferase functional assay, NIH 3T3 Gli-RE cells stimulated with ShhN
- Format: cell-based
- test settings: data as percent of the maximum luminescence in the absence of antagonists, Fig 4
metric name: Span of concentration response curve
Field format: numeric only.

# annotated cases, reported Span of concentration response curve shown
[
  {
    "compound": "COC(=O)Nc1nc2ccc(C(=O)c3ccccc3)cc2[nH]1",
    "experimental target": "Hh/SMO pathway",
    "observed value": 108.1
  },
  {
    "compound": "Cc1cn(-c2cc(NC(=O)c3ccc(C)c(Nc4nccc(-c5cccnc5)n4)c3)cc(C(F)(F)F)c2)cn1",
    "experimental target": "Hh/SMO pathway",
    "observed value": 95.05
  },
  {
    "compound": "CC1=C2C[C@H]3[C@@H](CC=C4C[C@@H](O)CC[C@@]43C)[C@@H]2CC[C@]12O[C@@H]1C[C@H](C)CN[C@H]1[C@H]2C",
    "experimental target": "Hh/SMO pathway",
    "observed value": 105.7
  }
]

Request: Please report the recorded Span of concentration response curve for O=C1CCC(N2C(=O)c3ccccc3C2=O)C(=O)N1 (centres unmarked) [Thalidomide] .
Result: -12.85

Request: Please report the recorded Span of concentration response curve for CS(=O)(=O)Nc1ccc([N+](=O)[O-])cc1Oc1ccccc1 [Nimesulide] .
Result: -3.874

====

- experimental target: mSMO (Mus musculus)
- Sequence (P56726 33-793): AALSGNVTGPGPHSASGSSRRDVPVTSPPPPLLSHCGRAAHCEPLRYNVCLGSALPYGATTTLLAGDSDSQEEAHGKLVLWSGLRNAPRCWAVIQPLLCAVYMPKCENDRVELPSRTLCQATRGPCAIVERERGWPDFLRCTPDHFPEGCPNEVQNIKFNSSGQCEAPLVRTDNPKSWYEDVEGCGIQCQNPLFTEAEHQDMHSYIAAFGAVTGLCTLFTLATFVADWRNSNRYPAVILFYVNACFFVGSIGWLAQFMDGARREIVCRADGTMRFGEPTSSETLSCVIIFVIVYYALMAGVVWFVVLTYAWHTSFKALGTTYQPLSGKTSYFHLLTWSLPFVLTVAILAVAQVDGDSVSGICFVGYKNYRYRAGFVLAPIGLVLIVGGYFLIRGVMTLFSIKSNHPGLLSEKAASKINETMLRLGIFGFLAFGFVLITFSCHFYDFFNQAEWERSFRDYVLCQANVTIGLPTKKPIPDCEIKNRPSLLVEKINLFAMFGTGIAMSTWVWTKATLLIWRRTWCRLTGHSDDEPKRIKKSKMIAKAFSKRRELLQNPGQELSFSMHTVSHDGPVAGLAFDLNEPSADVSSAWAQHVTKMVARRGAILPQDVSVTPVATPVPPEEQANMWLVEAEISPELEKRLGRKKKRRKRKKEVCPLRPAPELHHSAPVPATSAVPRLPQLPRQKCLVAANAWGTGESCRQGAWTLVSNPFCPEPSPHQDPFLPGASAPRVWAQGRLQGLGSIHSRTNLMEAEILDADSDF
metric name: IC50

Request: Please provide the recorded IC50 for Cc1cn(-c2cc(NC(=O)c3ccc(C)c(Nc4nccc(-c5cccnc5)n4)c3)cc(C(F)(F)F)c2)cn1 [Nilotinib] , tested on mSMO (Mus musculus).
Result: 3.11 µM

====

- Tested on: MB-PDX cells
- test: cells
- test settings: Homo sapiens, 72 h, read-out: Cell viability assay IC50
metric name: pIC50
Recall that pIC50 is obtained by taking minus log10 of the concentration measured in molar.

[
  {
    "structure string": "CS(=O)(=O)c1ccc(C(=O)Nc2ccc(Cl)c(-c3ccccn3)c2)c(Cl)c1",
    "metric name": "pIC50",
    "observed value": 4.28
  }
]

Request: Please report the recorded pIC50 for Cc1cn(-c2cc(NC(=O)c3ccc(C)c(Nc4nccc(-c5cccnc5)n4)c3)cc(C(F)(F)F)c2)cn1 .
Result: 5.30

====

- experimental target: mSMO (Mus musculus)
- Construct: host or cells: HEK293T
- test: BODIPY-Cyclopamine competition binding assay, flow cytometry, HEK293T cells transiently transfected with mSMO
- test settings: BODIPY-Cyclopamine 5 nM
metric name: Displacement of BODIPY-Cyclopamine from SMO (in words)

[
  {
    "compound": "CS(=O)(=O)Nc1ccc([N+](=O)[O-])cc1Oc1ccccc1 [Nimesulide]",
    "experimental target": "mSMO (Mus musculus)",
    "observed value": "no effect"
  },
  {
    "compound": "COC(=O)Nc1nc2ccc(C(=O)c3ccccc3)cc2[nH]1",
    "experimental target": "mSMO (Mus musculus)",
    "observed value": "no effect"
  },
  {
    "compound": "O=C1CCC(N2C(=O)c3ccccc3C2=O)C(=O)N1 (stereo not shown) [Thalidomide]",
    "experimental target": "mSMO (Mus musculus)",
    "observed value": "no effect"
  }
]
